target.entity: human TFPI alpha (full-length TFPIα) (human, UniProt P10646 29-304)
protocol.summary: cell-based or functional assay
I'd be grateful if you could share measured thrombin peak (nM), 200 nM mAb (2 x 100 nM), FVIII-neutralised plasma + 20 nM TFPIα for these entries.
Answers are plain numbers, in nM.

mAb 2F3 (antibody, V domains shown) VH: QVQLKQSGPGLVQPSQSLSITCTVSGFSLSSYGVHWVRQSPGKGLEWLGVIWRGGSTDFNAAFMSRVSFTKDNSKSQVFFKMNSLQADDTAIYYCAKNSHGNYVGYAMDYWGQGTSVTVSS VL: DIVMTQSQKFMSTTVGDKVSIPCKASENVGAAVAWYQQKPGQSPTLLIYSASNRYTGIPDRFTGSGSGTDFTLTIRTVQSEDLADYFCQQYTNYPTFGGGTKLEIKR ... 20.9
mAb 2F22 (antibody, V domains shown) VH: QVQLKQSGPGLVQPSQSLSITCTVSGFSLTNYGVHWVRQSPGKGLEWLAVIWRGGSIDYNAAFMSRLSITKDNSKSQVFFKMNSLQADDTAIYYCAKNSHGNYVGYAMDYWGQGTSVTVSS VL: GIVMTQSQKFMSTTVGDRVSITCKASQSVGPAVAWYQQKPGQSPKLLIYSASNRYTGVPDRFTGSGSGADFTLTISNLHSEDLADYFCQQYTSYPTFGGGTKLEIKR ... 23.7
mAb 1F91 (antibody, V domains shown) VH: DVQLQESGPGLVKPSQSLSLTCTVSGYSITSDYAWNWIRQFPGNKLEWMGYISYSGSTSYNPSLKSRISITRDTSKNQFFLQLNSVTTEDTATYYCARWAYDGPWGQGTLVTVSA VL: QIVLSQSPALLSASPGEKVTMTCRASSSVSHMHWYQQKPGSSPKPWIYATSNLASGVPARFSGSGSGTSYSLTITRVEAEDAATYYCQQWSSNPFTFGSGTKLEIKR ... 0

Enquiry: What thrombin peak (nM), 200 nM mAb (2 x 100 nM), FVIII-neutralised plasma + 20 nM TFPIα value was documented for this binder, mAb 4F110 (antibody, human IgG4 S228P, kappa, V domains shown) VH: QVQLQQSGAELVKPGASVKLSCKASGYTFISYYMYWVKQRPGQGLEWIGEINPSNGDTNLNEKFKSKATLTVDKSSSTVYMQLSSLTSEDSAVYYCTRWDRFDGFVYWGQGTLVTVSA VL: ETTVTQSPASLSMAIGGKVTIRCIISTNIDDDINWYQQKPGEPPKLLISEGNTLRPGVPSRFSSSGYGTDFVFTIENMLSEDVADYYCLQSDDLPYTFGGGTKLEIKR ?
Return: 0
